- Assay Comment: Phase I study CXR1002-001: plasma pharmacokinetics (LC-MS/MS)
- Assay type: in vivo, human
- Settings: human, plasma, oral, 200 mg, Patient 010 Dose 200 mg; 192 hr (Day 9); read-out: Concentration
Property Name: concentration at 192 h (µM)
Field format: number, assumed µM, no unit text.

Please list concentration at 192 h recorded for the molecule O=C(O)C(F)(F)C(F)(F)C(F)(F)C(F)(F)C(F)(F)C(F)(F)C(F)(F)F [CXR1002] 101

----------
- Assay Comment: Phase I study CXR1002-001: plasma pharmacokinetics (LC-MS/MS)
- Format: in vivo, human
- Settings: human, plasma, oral, 1200 mg, Patient 034, 1200 mg, person, plasma, 4 hr; read-out: Concentration
Property Name: concentration at 4 hr
Record the result as number plus unit.

Look up and report measured concentration at 4 hr for this entry: O=C(O)C(F)(F)C(F)(F)C(F)(F)C(F)(F)C(F)(F)C(F)(F)C(F)(F)F 560 µM
